Test: PK study in SD rats after a single intravenous administration
Type: in vivo
Conditions: Sprague-Dawley (SD), rat, plasma, 2 mg/kg, 1 h
Protocol: A PK study of the compounds after a single intravenous administration. SD rats were randomly assigned to 5 groups (3 rats/group). Blood samples were collected from animals at 0.083 h, 0.25 h, 0.5 h, 1 h, 2 h, 4 h, 8 h, 10 h and 24 h after administration. […] The concentration of compounds in plasma were determined by an LC-MS/MS method with the lower limit of quantitation (LLOQ) of 0.50 ng/mL. Pharmacokinetic parameters were calculated with WinNonlin to assess the PK characteristics in SD rats. […]
ENDPOINT_NAME: concentration at 1 h (ng/mL)
Enter your answer as a number in ng/mL; do not include the unit.

Lookup result for CC1(C)C[C@@H](Nc2cccc(-c3sc(C(=O)O)c(OCC(=O)O)c3Cl)c2)CCN1S(=O)(=O)Cc1cccc(NC(=O)N2CCC(c3ccc4c5c(cccc35)C(=O)N4[C@H]3CCC(=O)NC3=O)CC2)c1 [Ref. Cpd, reference compound] ; measured concentration at 1 h: 318
